assay: chemical genetic growth profiling, strain panel (AID 1159580);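 further: tested at 20 µM; growth read once vehicle control cultures reached saturation at 30 °C; 1 = growth at the plate median or of vehicle wells; lower values mean less growth of the strain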; conditions: S. cerevisiae deletion strains, growth OD, locus YLR342W, strain FKS1, hits give low values
In all, about 5,500 compounds went through this assay and about 2,000 (36%) were called active. Inconclusive results (about 18%) are left out. Some of the results follow.
Provide the recorded normalized growth for the entries that follow.

Which measured normalized growth value corresponds to O=C1CC[C@]23C=CC(=O)NCCCCNCCCNC(=O)/C=C/c4ccc(c2c4)O[C@@H]3C1 ? 1 (inactive)

Request the reported normalized growth associated with S=c1ccss1 0.973 (inactive)

// lookup normalized growth for CCOC(=O)C1C(C=C(C)C)C1(C)C (stereo not drawn) 1 (inactive)

* * *

test: chemical genetic growth profiling, strain panel (AID 1159580); settings: S. cerevisiae deletion strains, growth OD, locus YGR229C, strain SMI1, hits give low values
Screen size: about 5,500 compounds; about 2,000 (36%) were called active. Inconclusive results (about 18%) are left out. This is one part of the list.
MEASURED_PARAMETER: normalized growth
The answer should be written as a number, with no unit following it.

normalized growth for CCN(CC)CCNC(=O)c1ccc(NC(C)=O)cc1 ? 1.01

So what does the record say about normalized growth for CC1(C)O[C@@H]2CC3C4CCC5=CC(=O)C=C[C@]5(C)[C@@]4(F)[C@@H](O)C[C@]3(C)[C@]2(C(=O)CO)O1 (stereo partly specified) ? 1.02

Find the recorded normalized growth belonging to CN1CCOC(c2ccccc2)c2ccccc2C1 (stereo unspecified) and report it. 0.987

For the compound O=c1[nH]c2cc([N+](=O)[O-])c([N+](=O)[O-])cc2[nH]c1=O , what normalized growth is on record? 0.977

What measured normalized growth goes with FC(F)(F)c1ccc(-c2nc(-c3ccc4c(c3)OCCCO4)cs2)cc1 ? 1.01

normalized growth for C=CCn1c(Sc2ncc([N+](=O)[O-])s2)n[nH]c1=O ? 0.984

// returns reported normalized growth for input CN(C)CC/C=C1/c2ccccc2COc2ccccc21 1.02

Entry CC1(NCC(O)COc2cccc3[nH]ccc23)CCC(C(C)(C)NC(=O)CBr)CC1 (stereo unspecified) : reported normalized growth = ? 0.997

Please report the recorded normalized growth for CC(=O)Nc1ccc(O)cc1 . 0.972

Could you tell me which normalized growth is on file for COC(=O)c1ccc(Cl)cc1N(Cc1ccccc1)S(C)(=O)=O ? 0.999

Please give the measured normalized growth for this compound: COc1cc([C@@H]2c3cc4c(cc3C(O[C@@H]3O[C@@H]5CO[C@@H](c6cccs6)OC5[C@H](O)[C@H]3O)C3COC(=O)[C@@H]32)OCO4)cc(OC)c1O (stereo partly specified) 1

I have this compound here, CC(=O)Oc1cc(OC(C)=O)c2c(=O)c(-c3ccccc3)coc2c1 , and I need its recorded normalized growth. 1.02

Entry under review: CCCN1C[C@H](CSC)C[C@@H]2c3cccc4[nH]cc(c34)C[C@H]21 . Reported normalized growth? 0.984

Fill in: normalized growth of CC1=NCCc2c1[nH]c1cc(O)ccc21 is ___ 1.01

Value lookup for normalized growth; key = CCN(CC)CCNc1ccc(CO)c2sc3ccccc3c(=O)c12 0.998

Item under review: Cc1cc(NC(=O)Nc2ccc3c(ccn3C)c2)sn1 . Reported normalized growth? 1

* * *

Provide the reported normalized growth of each item.
assay: chemical genetic growth profiling, strain panel (AID 1159580);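 further: tested at 20 µM; growth read once vehicle control cultures reached saturation at 30 °C; 1 = growth at the plate median or of vehicle wells; lower values mean less growth of the strain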; details: S. cerevisiae deletion strains, growth OD, locus YCL029C, strain bik1, hits give low values
In all, about 5,500 compounds went through this assay and about 2,000 (36%) were called active. Inconclusive results (about 18%) are left out. The list shows a part of the results.

What value of normalized growth has been reported for the following compound? C=C1C2CC[C@@]3(C)[C@H](c4ccoc4)OC(=O)C[C@]13O[C@H]1CC(=O)C(C)(C)[C@H](C(O)C(=O)OC)[C@@]21C (some centres undefined) 1.01 (inactive)

Which normalized growth is reported for this compound? Nc1nc(N)c2nc(-c3ccccc3)c(N)nc2n1 1.01 (inactive)

Need normalized growth of COc1cc2cc[n+]3cc4c(OC)c(OC)ccc4cc3c2cc1OC , thanks. 0.983 (inactive)

Query: normalized growth; subject: CC(=O)O[C@H]1C[C@@H](O)C(C)(C)C2C[C@@H](OC(C)=O)[C@]3(C)C(CC[C@@]4(C)[C@H](c5ccoc5)OC(=O)C5OC543)[C@]21C (some centres undefined) 0.984 (inactive)

* * *

assay: chemical genetic growth profiling, strain panel (AID 1159580);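 further: tested at 20 µM; growth read once vehicle control cultures reached saturation at 30 °C; 1 = growth at the plate median or of vehicle wells; lower values mean less growth of the strain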; details: S. cerevisiae deletion strains, growth OD, locus YER110C, hits give low values
In all, about 5,500 compounds went through this assay and about 2,000 (36%) were called active. Not shown: some 18% with an inconclusive outcome. The list shows a part of the results.
MEASURED_PARAMETER: normalized growth
Please give only the number in your answer, with no unit.

Which normalized growth is reported for this molecule? O=C(O)c1nc2cc(Cl)c(Cl)cc2[nH]c1=O 0.992

Using the record for C=C1C2CC[C@@]3(C)[C@H](c4ccoc4)OC(=O)C[C@]13O[C@H]1CC(=O)C(C)(C)[C@H](C(O)C(=O)OC)[C@@]21C (some centres undefined) , report its normalized growth. 1.01

Look up normalized growth: CCn1cc(C(=O)O)c(=O)c2cc(F)c(N3CCNCC3)cc21 0.996

Entry CCC(/C=C/[C@@H](C)[C@H]1CCC2C3CC=C4C[C@@H](O)CC[C@]4(C)C3CC[C@@]21C)C(C)C (some centres undefined) has what normalized growth? 0.995

// returns reported normalized growth for input CCCCC1C(=O)N(c2ccccc2)N(c2ccccc2)C1=O 0.993

Any idea what its normalized growth is? The molecule is COc1ccc2cc3[n+](cc2c1OC)CCc1cc2c(cc1-3)OCO2 0.452

Record request: normalized growth value, item Cn1c(=O)c2[nH]c(C3CCCC3)nc2n(C)c1=O 0.991

# get_value(readout='normalized growth', item= CCC1C2CC3C4N(C)c5ccccc5C45CC(C2C5OC(C)=O)N3C1OC(C)=O (centres undefined) ) 1.03

Return reported normalized growth; argument: COc1cc([C@@H]2c3cc4c(cc3C(O[C@@H]3O[C@@H]5CO[C@@H](c6cccs6)OC5[C@H](O)[C@H]3O)C3COC(=O)[C@@H]32)OCO4)cc(OC)c1O (some centres undefined) 1.02

// query normalized growth value for entry CC(C)c1ccc2c(c1O)CC[C@H]1C3=C(CC[C@]21C)C(=O)OC3 0.943

Suppose we examine the molecule CC1=NCCc2c1[nH]c1cc(O)ccc21 ; what normalized growth value has been reported? 0.974

Fill in the blank: the reported normalized growth of CCN(CC)CCNc1ccc(CO)c2sc3ccccc3c(=O)c12 is ____. 1.02

Would you kindly share the measured normalized growth for CC1(C)O[C@@H]2CC3C4C[C@H](F)C5=CC(=O)C=C[C@]5(C)[C@@]4(F)[C@@H](O)C[C@]3(C)[C@]2(C(=O)CO)O1 (some centres undefined) ? 1.02

Item under review: CC1NC(=O)NC1=O (centres undefined) . Reported normalized growth? 1.01

# lookup: normalized growth of COc1ccc(-c2cc(=O)c3cc(OC)ccc3o2)cc1 0.974

Name the reported normalized growth value associated with the molecule COc1cccc2c1cc([N+](=O)[O-])c1c(C(=O)O)cc3c(c12)OCO3 1.01

Query: normalized growth; subject: CCCN1C[C@H](CSC)C[C@@H]2c3cccc4[nH]cc(c34)C[C@H]21 1.02

Quick check: normalized growth of CC(N)Cc1ccc(O)cc1 (centres undefined) ? 1.02

Which measured normalized growth value corresponds to CC(=O)Nc1ccc(OC(=O)c2ccccc2O)cc1 ? 0.951

Please look up its normalized growth: O=c1[nH]c2cc(Cl)c(Cl)cc2[nH]c1=O 1.04

What value of normalized growth has been reported for the following molecule? CC(=O)Nc1ccc(O)cc1 0.992

Quick one: normalized growth of CN1CCc2c(c3ccccc3n2Cc2ccccc2)C1 ? 1.01

Which normalized growth is listed for NC(=O)CC[C@@H](N)C(=O)O ? 0.996

Given the molecule CCCCCCc1ccc(O)cc1O , what is its reported normalized growth? 0.987

* * *

test: chemical genetic growth profiling, strain panel (AID 1159580);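 further: tested at 20 µM; growth read once vehicle control cultures reached saturation at 30 °C; 1 = growth at the plate median or of vehicle wells; lower values mean less growth of the strain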; conditions: S. cerevisiae deletion strains, growth OD, locus YOR231W, strain MKK1, hits give low values
Out of some 5,500 compounds screened, about 2,000 (36%) were called active. About 18% were inconclusive and are not listed. The list shows a part of the results.
Exercise: for every item that follows, state its recorded normalized growth.
Write the number on its own, no unit after it.

Which normalized growth value belongs to CC(C)(C)c1cc2nc(C(F)(F)F)cc(NNC(=O)c3ccc(Cl)cc3)n2n1 ? 0.988

Which normalized growth reading was recorded for the compound CN(C)C(=O)Oc1cc(OC(=O)N(C)C)cc(C(O)CNC(C)(C)C)c1 (configuration not stated) ? 1.03

Endpoint output: normalized growth of CC1(C)O[C@@H]2CC3C4C[C@H](F)C5=CC(=O)C=C[C@]5(C)[C@@]4(F)[C@@H](O)C[C@]3(C)[C@]2(C(=O)CO)O1 (some centres not stated) . Value? 0.986

Find the recorded normalized growth belonging to Cc1cc(C(=O)N(c2ccccc2)C(C)C2CC2)c(Cl)cc1Cl (configuration not stated) and report it. 0.95

What measured normalized growth goes with CCN(CC)CCNc1ccc(CO)c2sc3ccccc3c(=O)c12 ? 1.04

GET /values?readout=normalized growth&item= O=C1Nc2ccccc2/C1=N/N=C\c1ccccc1Cl 0.823

If you can, please state the reported normalized growth value of O=C1CCc2ccc(OCCCCN3CCN(c4cccc(Cl)c4Cl)CC3)cc2N1 . 0.97
